Assign melting point to each entry below.

Can you give me melting point for all of these, one by one?
1. Oc1c(F)cc(F)cc1Sc1cc(F)cc(F)c1O [BT-opF, 6,6′-thio-bis-(2,4-difluorophenol)]
2. Oc1c(Cl)cc(Br)cc1Sc1cc(Br)cc(Cl)c1O [BT-pBr, 6,6′-thio-bis-(4-bromo-2-chlorophenol)]
3. Oc1c(F)cc(Cl)cc1Sc1cc(Cl)cc(F)c1O [BT-oF, 6,6′-thio-bis-(4-chloro-2-fluorophenol)]
4. Oc1c(Br)cc(Br)cc1Sc1cc(Br)cc(Br)c1O [BT-opBr, 6, 6′-thio-bis-(2,4-dibromophenol)]
5. Oc1c(Br)cc(Cl)cc1Sc1cc(Cl)cc(Br)c1O [BT-oBr, 6,6′-thio-bis-(2-bromo-4-chlorophenol)]
6. Oc1c(Cl)cc(F)cc1Sc1cc(F)cc(Cl)c1O [BT-pF, 6,6′-thio-bis-(2-chloro-4-fluorophenol)]

127 to 130 °C
200 to 202 °C
159 to 161 °C
164 to 166 °C
178 to 180 °C
140 to 142 °C

----------
- System: MRSA MW2
- test_details: Antimicrobial activity (MIC) of bithionol analogs
- Format: cell-based, S. aureus
- experimental_setup: in words (FIGS. 5, 13, 14)
endpoint: antimicrobial activity compared with bithionol

Reference set (5 entries):
Oc1c(Br)cc(Cl)cc1Sc1cc(Cl)cc(Br)c1O [BT-oBr, 6,6′-thio-bis-(2-bromo-4-chlorophenol)]; similar
Oc1c(Cl)cc(F)cc1Sc1cc(F)cc(Cl)c1O [BT-pF, 6,6′-thio-bis-(2-chloro-4-fluorophenol)]; slightly reduced
Oc1c(Cl)cc(Br)cc1Sc1cc(Br)cc(Cl)c1O [BT-pBr, 6,6′-thio-bis-(4-bromo-2-chlorophenol)]; similar
Oc1c(Br)cc(Br)cc1Sc1cc(Br)cc(Br)c1O [BT-opBr, 6, 6′-thio-bis-(2,4-dibromophenol)]; similar
Oc1c(F)cc(Cl)cc1Sc1cc(Cl)cc(F)c1O [BT-oF, 6,6′-thio-bis-(4-chloro-2-fluorophenol)]; slightly reduced

Would you mind telling me what antimicrobial activity compared with bithionol value was observed for Oc1c(F)cc(F)cc1Sc1cc(F)cc(F)c1O [BT-opF, 6,6′-thio-bis-(2,4-difluorophenol)] ? slightly reduced

----------
- System: MRSA MW2 cells
- test_details: Bacterial membrane permeability assay (SYTOX Green)
- Assay type: cell-based, S. aureus
- experimental_setup: in words (FIGS. 5, 13, 14)
endpoint: membrane activity compared with bithionol

Reference set (5 entries):
Oc1c(Br)cc(Br)cc1Sc1cc(Br)cc(Br)c1O; similar
Oc1c(Cl)cc(Br)cc1Sc1cc(Br)cc(Cl)c1O; similar
Oc1c(F)cc(F)cc1Sc1cc(F)cc(F)c1O; slightly reduced
Oc1c(Cl)cc(F)cc1Sc1cc(F)cc(Cl)c1O; slightly reduced
Oc1c(Br)cc(Cl)cc1Sc1cc(Cl)cc(Br)c1O; similar

Moving on to another molecule below.
Would you mind telling me what membrane activity compared with bithionol value was observed for `Oc1c(F)cc(Cl)cc1Sc1cc(Cl)cc(F)c1O` ? slightly reduced
